read-out: Monocyte Chemoattractant Protein-1 (MCP1), CCL2 (gene 6347); assay: BSK_3C_MCP1: BioMAP Diversity Plus: 3C Assay for Monocyte Chemoattractant Protein-1 (MCP1) Biomarker Activity (AID 2283017); details: primary human endothelial cells (HUVEC); actives raise or lower the signal
Activity calls are given as the source filed them. How the source made its calls: active means hit-call score of the fitted dose curve at least 0.9, where 1 is the maximum; inactive means score below 0.9.
Labels: active, inactive

record_smiles | classification
NC(=O)c1nc(-c2cccc(-c3cc(F)ccc3OCC(F)(F)C(F)(F)F)c2)n[nH]1 | active
Cc1cc2c(cc1C(F)(F)F)N(C(=O)Nc1ccc(Oc3cccnc3C)nc1)CC2 | inactive
CC[C@H](NC(=O)c1cc(F)ccc1NS(=O)(=O)c1cccc2cccnc12)c1ccccc1 | inactive
Clc1ccccc1C(c1ccccc1)(c1ccccc1)n1ccnc1 | active

---

read-out: solute carrier (SLCO1B1), SLCO1B1 (gene 10599); test: LTEA_HepaRG_SLCO1B1: Life Technologies and Expression Analysis (LTEA) Assay for solute carrier (SLCO1B1) using HepaRG (AID 2283530); settings: mRNA level, 48 h; actives raise or lower the signal
Calls of active or inactive are those of the source. The calls were made as follows: active = hit-call score of the fitted dose curve at least 0.9, where 1 is the maximum; inactive = score below 0.9.
Labels: True for active, False for inactive

compound | classification
CC1=CC(=O)/C(=C(/C)O)C(=O)O1 | False
O=C1CCC(C2CCCCC2)CC1 | False
CCCCCCCCOc1ccc(C(=O)c2ccccc2)c(O)c1 | False
O=C(OCCCCCCOC(=O)c1ccccc1)c1ccccc1 | False
OC12N=C(c3ccccc3)SC1Cc1cc(Cl)ccc12 (centres undefined) | True
C[C@]12CC[C@@H]3c4ccc(O)cc4CC[C@H]3[C@@H]1CC[C@H]2O | True
CN(C[C@@H](CC[N+]12CCC(C3CCCCC3)(CC1)CC2)c1ccc(Cl)c(Cl)c1)C(=O)c1cc(C(F)(F)F)cc(C(F)(F)F)c1 | True
CN(C)c1ccc(C(=C2C=CC(=[N+](C)C)C=C2)c2ccc(N(C)C)cc2)cc1 | True
CC(C)(C)c1csc(-c2cc3cc(OCc4ccccc4CC(=O)O)ccc3o2)n1 | True
Cc1cc2c(cc1C(F)(F)F)N(C(=O)Nc1ccc(Oc3cccnc3C)nc1)CC2 | False
CCCCCCCCN(C)CCCCCCCC | False
CC(C)(O)c1ccc(CNC(=O)c2cccnc2Oc2ccc3nonc3c2)cc1 | False
CCCOC(=O)c1cc(O)c(O)c(O)c1 | False
Cc1occc1C(=O)Nc1ccc(C(=O)N2CCC(F)(F)/C(=C\C(=O)N3CCC(N4CCCCC4)CC3)c3ccccc32)cc1 | False
Cc1cccc2ccccc12 | False
Cc1ccc(C(C)C)cc1 | False
CCN(Cc1cccnc1)C(=O)c1cccc(Cl)c1[C@]1(C)C(=O)N(Cc2ccc(OC)cc2OC)c2ccc(Cl)cc21 | True
CCCCOC(=O)CC(CC(=O)OCCCC)(OC(C)=O)C(=O)OCCCC | False
Oc1ccccc1 | False

---

target: sheep Cyclooxygenase-2 (Cox2), PTGS2 (gene 443460) (UniProt P79208); assay: NVS_ENZ_oCOX2: NovaScreen (NVS) Enzymatic Assay for sheep Cyclooxygenase-2 (Cox2) (AID 2283231)
Sequence (P79208 whole entry, looked up): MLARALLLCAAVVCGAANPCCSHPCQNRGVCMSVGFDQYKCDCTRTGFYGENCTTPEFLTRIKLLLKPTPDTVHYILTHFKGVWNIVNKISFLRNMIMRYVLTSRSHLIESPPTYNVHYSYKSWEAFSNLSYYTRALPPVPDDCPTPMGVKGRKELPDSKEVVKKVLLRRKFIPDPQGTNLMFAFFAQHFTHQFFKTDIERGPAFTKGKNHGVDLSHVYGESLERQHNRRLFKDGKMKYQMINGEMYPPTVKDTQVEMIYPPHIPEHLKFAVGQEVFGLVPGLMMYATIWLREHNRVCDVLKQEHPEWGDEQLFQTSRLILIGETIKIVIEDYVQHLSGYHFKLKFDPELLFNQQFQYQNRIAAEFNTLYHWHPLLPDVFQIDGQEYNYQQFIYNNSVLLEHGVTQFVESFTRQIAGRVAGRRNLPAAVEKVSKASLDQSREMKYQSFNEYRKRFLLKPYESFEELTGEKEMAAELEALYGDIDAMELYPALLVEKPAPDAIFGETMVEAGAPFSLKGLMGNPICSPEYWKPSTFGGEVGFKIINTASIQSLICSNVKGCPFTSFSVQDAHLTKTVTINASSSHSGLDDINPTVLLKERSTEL
Inconclusive results are not listed. Calls of active or inactive are those of the source. Rule for the calls: active = hit-call score of the fitted dose curve at least 0.9, where 1 is the maximum; inconclusive = response in the unintended direction; inactive = score below 0.9.
Labels: active, inactive

record_smiles | classification
CCCCCCCCOC(=O)c1cc(O)c(O)c(O)c1 | active
CCCOC(=O)c1cc(O)c(O)c(O)c1 | active
CC1=CC(=O)/C(=C(/C)O)C(=O)O1 | inactive

---

target: human Peroxisome Proliferator-activated Receptor alpha (PPARa), PPARA (gene 5465) (UniProt Q07869); assay: NVS_NR_hPPARa: NovaScreen (NVS) Nuclear Receptor Binding Assay for human Peroxisome Proliferator-activated Receptor alpha (PPARa) (AID 2283359);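 further: activity means loss of TR-FRET signal versus DMSO baseline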
Sequence (Q07869 whole entry, looked up): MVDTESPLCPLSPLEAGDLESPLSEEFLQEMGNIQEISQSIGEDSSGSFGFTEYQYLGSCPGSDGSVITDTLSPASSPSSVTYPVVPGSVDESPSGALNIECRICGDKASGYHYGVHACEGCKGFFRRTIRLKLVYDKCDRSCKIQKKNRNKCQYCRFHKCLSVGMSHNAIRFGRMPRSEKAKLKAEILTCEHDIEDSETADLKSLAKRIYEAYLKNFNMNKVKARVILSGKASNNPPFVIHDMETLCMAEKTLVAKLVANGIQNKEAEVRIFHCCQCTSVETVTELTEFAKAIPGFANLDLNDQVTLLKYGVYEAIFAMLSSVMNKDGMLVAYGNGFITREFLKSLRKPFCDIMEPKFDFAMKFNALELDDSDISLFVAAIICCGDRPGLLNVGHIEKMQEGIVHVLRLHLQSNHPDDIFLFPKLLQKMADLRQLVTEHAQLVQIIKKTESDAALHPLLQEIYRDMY
Results filed as inconclusive are left out. The source made the active and inactive calls. Rule for the calls: active = hit-call score of the fitted dose curve at least 0.9, where 1 is the maximum; inconclusive = response in the unintended direction; inactive = score below 0.9.
Labels: true (1) (active), false (0) (inactive)

record_smiles | classification
CC(C)(c1cc(Br)c(O)c(Br)c1)c1cc(Br)c(O)c(Br)c1 | true (1)
O=CCCCC=O | false (0)
CCCCCCCCCC(=O)O | false (0)

---

Target: PGR (gene 5241) (UniProt P06401)
Sequence (P06401 whole entry, looked up): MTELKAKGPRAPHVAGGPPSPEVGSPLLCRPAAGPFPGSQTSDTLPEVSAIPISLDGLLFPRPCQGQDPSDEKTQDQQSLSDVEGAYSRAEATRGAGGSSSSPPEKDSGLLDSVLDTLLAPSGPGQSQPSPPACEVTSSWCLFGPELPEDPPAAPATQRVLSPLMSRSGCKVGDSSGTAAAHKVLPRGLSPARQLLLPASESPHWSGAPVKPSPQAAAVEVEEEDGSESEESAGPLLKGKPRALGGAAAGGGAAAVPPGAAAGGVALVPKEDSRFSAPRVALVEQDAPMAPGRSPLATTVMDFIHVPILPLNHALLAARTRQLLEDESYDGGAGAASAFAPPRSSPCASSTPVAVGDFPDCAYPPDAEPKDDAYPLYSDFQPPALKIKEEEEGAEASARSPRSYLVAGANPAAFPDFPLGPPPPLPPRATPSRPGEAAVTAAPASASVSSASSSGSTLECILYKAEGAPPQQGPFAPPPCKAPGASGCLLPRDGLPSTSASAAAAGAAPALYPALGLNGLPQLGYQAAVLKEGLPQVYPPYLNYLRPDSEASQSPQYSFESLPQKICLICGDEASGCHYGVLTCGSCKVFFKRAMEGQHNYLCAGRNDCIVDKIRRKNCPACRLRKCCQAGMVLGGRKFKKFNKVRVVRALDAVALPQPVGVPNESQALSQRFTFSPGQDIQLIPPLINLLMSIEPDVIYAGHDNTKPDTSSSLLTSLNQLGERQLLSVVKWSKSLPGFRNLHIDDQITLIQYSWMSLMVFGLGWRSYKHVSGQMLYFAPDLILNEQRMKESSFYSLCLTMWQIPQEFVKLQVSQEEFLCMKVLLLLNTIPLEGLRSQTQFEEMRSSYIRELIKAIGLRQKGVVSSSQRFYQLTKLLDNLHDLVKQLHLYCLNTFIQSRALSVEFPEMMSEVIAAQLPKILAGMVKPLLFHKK
Test: NVS_NR_hPR: NovaScreen (NVS) Nuclear Receptor Binding Assay for human Progestron Receptor (PR) (AID 2283360);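 further: active means loss of bound radioligand signal versus DMSO baseline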
Procedure: NVS_NR_hPR is a biochemical, single-readout assay that uses extracted gene-proteins from T47D in a cell-free assay. Measurements were taken 18 hours after chemical dosing in a 96-well plate.NVS_NR_hPR is one of one assay component(s) measured or calculated from the NVS_NR_hPR assay. […] This assay endpoint, NVS_NR_hPR, was analyzed in the positive analysis fitting direction relative to DMSO as the negative control and baseline of activity. […]
Records with an inconclusive call do not appear. The source made the active and inactive calls. Rule for the calls: active = hit-call score of the fitted dose curve at least 0.9, where 1 is the maximum; inconclusive = response in the unintended direction; inactive = score below 0.9.
Labels: Yes (active), No (inactive)

record_smiles | classification
CCCC(=O)OCCC(C)C | Yes
CC(C)(O)c1ccc(CNC(=O)c2cccnc2Oc2ccc3nonc3c2)cc1 | No
CC1(C)NC(=O)N(c2ccc([N+](=O)[O-])c(C(F)(F)F)c2)C1=O | Yes

---

read-out: Alkaline Phosphatase, Placental (ALPP) gene, ALPP (gene 250); assay: LTEA_HepaRG_ALPP: Life Technologies and Expression Analysis (LTEA) Assay for Alkaline Phosphatase, Placental (ALPP) gene using HepaRG (AID 2283468); details: mRNA level, 48 h; actives raise or lower the signal
Activity calls are given as the source filed them. Rule for the calls: active = hit-call score of the fitted dose curve at least 0.9, where 1 is the maximum; inactive = score below 0.9.
Labels: active, inactive

compound | classification
OCCO | inactive
COCC(C)OCC(C)OCC(C)O (stereo unspecified) | inactive
CC1(C)NC(=O)N(c2ccc([N+](=O)[O-])c(C(F)(F)F)c2)C1=O | active
O=C(O)c1ccccc1C(=O)OCc1ccccc1 | inactive
O=C1c2ccccc2C(=O)N1CCc1noc(-c2ccc(CN3CCCCCC3)s2)n1 | inactive
CN(C)C(=O)C1(N2CCCCC2)CCN(CC[C@@]2(c3ccc(Cl)c(Cl)c3)CN(C(=O)c3ccccc3)CCO2)CC1 | active
CCN(Cc1cccnc1)C(=O)c1cccc(Cl)c1[C@]1(C)C(=O)N(Cc2ccc(OC)cc2OC)c2ccc(Cl)cc21 | active
O=C(O)Cc1cc(I)c(Oc2ccc(O)c(I)c2)c(I)c1 | active
CCN(CC)C(=O)c1cc(S(=O)(=O)Cc2ccccc2)c(N2CCC(c3ccccc3)CC2)cc1N(CC)CCN(C)C | active
CC[C@H](NC(=O)c1cc(F)ccc1NS(=O)(=O)c1cccc2cccnc12)c1ccccc1 | inactive
Cc1cc(F)ccc1-c1cc(N2CC[C@@H](O)[C@H]2CO)ncc1N(C)C(=O)C(C)(C)c1cc(C(F)(F)F)cc(C(F)(F)F)c1 | active
Clc1cc(Cl)c2c(c1)N=C1CCCCCN1C2 | inactive
NC(=O)c1nc(-c2cccc(-c3cc(F)ccc3OCC(F)(F)C(F)(F)F)c2)n[nH]1 | active
CCCCCCCCOC(=O)c1cc(O)c(O)c(O)c1 | active
CCCCCCCCCCCO | inactive
CN1C(=O)N(c2ccccc2Br)Cc2cnc(Nc3ccc4c(c3)OCC(CO)O4)nc21 (stereo unspecified) | active
CCCCCCCC[Si](OCC)(OCC)OCC | inactive
O=C(OCCCCCCOC(=O)c1ccccc1)c1ccccc1 | inactive
Cc1ccc2oc(CN(Cc3ccccc3)C(=O)Nc3c(F)cc(F)cc3F)c(-c3ccc(Cl)cc3)c2c1 | inactive
O=c1ccc2ccccc2o1 | inactive
CC(C)(O)c1ccc(CNC(=O)c2cccnc2Oc2ccc3nonc3c2)cc1 | inactive
CN1C(=O)CC[C@H]1c1cccnc1 | inactive
O=C(O)Cn1c(=O)n(Cc2ccc(Br)cc2F)c(=O)c2ccc(Cl)cc21 | inactive
C[C@]12CC[C@@H]3c4ccc(O)cc4CC[C@H]3[C@@H]1CC[C@H]2O | active
COc1cccc([C@H](O)C2CCN(CCc3ccc(F)cc3)CC2)c1OC | active
CO[C@H]1/C=C/O[C@@]2(C)Oc3c(C)c(O)c4c(O)c(c(/C=N/N5CCN(C)CC5)c(O)c4c3C2=O)NC(=O)/C(C)=C\C=C\[C@H](C)[C@H](O)[C@@H](C)[C@@H](O)[C@@H](C)[C@H](OC(C)=O)[C@@H]1C | active
CCN(Cc1cccc(S(=O)(=O)O)c1)c1ccc(C(=C2C=CC(=[N+](CC)Cc3cccc(S(=O)(=O)O)c3)C=C2)c2ccccc2S(=O)(=O)[O-])cc1 | inactive
CN(C)c1ccc(C(=C2C=CC(=[N+](C)C)C=C2)c2ccc(N(C)C)cc2)cc1 | active
Cc1occc1C(=O)Nc1ccc(C(=O)N2CCC(F)(F)/C(=C\C(=O)N3CCC(N4CCCCC4)CC3)c3ccccc32)cc1 | active
COc1ccc2cc(S(=O)(=O)N[C@H](CC(=O)N[C@H](Cc3ccc(CN4[C@H](C)CCC[C@@H]4C)cc3)C(=O)N(C)C(C)C)c3ccc4c(c3)OCO4)ccc2c1 | active
c1ccc(C[n+]2cccc3ccccc32)cc1 | active
